Every entry's value here was drawn from ChEMBL document CHEMBL1201862.

- System: OVCAR-4
- assay.text: NCI tumour cell line growth inhibition, 48 h
Calls of active or inactive are those of the source. Rule as the data show it: active = GI50 up to about 1.1 µM and inactive = higher.
I'd be grateful if you could share measured GI50 for these entries.

[[record]]
compound = "O=c1[nH]nc(-c2ccccc2)n1-n1cnnc1"
value_observed = "> 100 µM (inactive)"

[[record]]
compound = "COc1cc(CCCOC2OC(COC3OCC(O)C(O)C3O)C(O)C(O)C2O)cc2cc(-c3ccc4c(c3)OCO4)oc12 (centres undefined)"
value_observed = "> 175 µM (inactive)"

[[record]]
compound = "COc1cc2c(c(OC)c1O)-c1ccc(SC)c(=O)cc1C(NC(C)=O)CC2 (centres undefined)"
value_observed = "> 40.6 µM (inactive)"

[[record]]
compound = "COc1ccc(/C=C/c2nsc(/C=C/c3ccc(OC)cc3)n2)cc1"
value_observed = "> 100 µM (inactive)"

[[record]]
compound = "CN(C)CCNC(=O)c1cccc2ccc(-c3ccc(O)cc3)nc12"
value_observed = "2.43 µM (inactive)"


Quick one: give me GI50 for each item below, same order please.
1. CN(C)CCNC(=O)c1cc(Cl)cc2ccc(-c3ccccc3)nc12
2. CCN(CC)CCNc1ccc2ncn3c4cc(OC)c(OC)c(O)c4c(=O)c1c23

Result ::
1: 3.92 µM (inactive); 2: 4.9 µM (inactive)

Quick one: give me GI50 for each item below, same order please.
1. CCOC(=O)Cn1c(=O)c2cc(C)cc3c(Cl)nc4c(OC)c(OC)cc1c4c32
2. OCc1ccc2c(c1)CC1(C2)Cc2cc3c(cc2C1)CCC3
3. CC1(Cl)CC2OC3(Br)C=CC(C)(O)C2(CC1Br)C3(C)C (centres undefined)
4. COc1cc(Nc2cnc3cc(N)ccc3n2)cc(OC)c1OC
5. CCOC(=O)c1cc(I)c(-c2cc(C)no2)n1C
6. O=C(CCN1CCC(CCO)CC1)Nc1ccc2c(c1)C(=O)c1ccc(NC(=O)CCN3CCC(CCO)CC3)cc1C2=O
7. CN1CCC2(CC1)SSC1(CCN(C)CC1)S2

Result ::
["> 100 µM (inactive)", "17.4 µM (inactive)", "> 100 µM (inactive)", "> 100 µM (inactive)", "21.8 µM (inactive)", "12.5 µM (inactive)", "> 100 µM (inactive)"]

----------
- Test system: NCI-H460
- assay.text: NCI tumour cell line growth inhibition, 48 h
The source made the active and inactive calls. No stated cut-off is given here; in the data, active = GI50 up to about 1.1 µM and inactive = higher.
The reply should be one of these categories: yes (1) = active, no (0) = inactive

[[record]]
molecule = "CC1=NN2C=Nc3c(c(-c4ccc(Cl)cc4)cn3-c3ccc(C)cc3)C2N1 (stereo not drawn)"
discrete_label = "no (0)"

[[record]]
molecule = "COc1ccc(O)c(C(=O)CCC(=O)O)c1"
discrete_label = "no (0)"

[[record]]
molecule = "COCc1cc2c(cc1/C=C/[N+](=O)[O-])OCO2"
discrete_label = "no (0)"


Query :: // outcome(item) with item = "CCCCCn1c(=O)c2c(=O)[nH][nH]c2c2ccccc21"
Result :: no (0)

Query :: // outcome(item) with item = COc1ccc(/C=C\c2cc(OC)c(OC)c(OC)c2)cc1OC(=O)C(N)CCC(=O)O (stereo not drawn)
Result :: yes (1)

Query :: // outcome(item) with item = "CCOC(=O)c1c(SC(=O)c2ccc(OC)cc2)n(-c2ccccc2)c(=S)n(-c2ccccc2)c1=O"
Result :: no (0)
